tested target: T1, MARV Ravn GPe (Marburg virus, strain Ravn, UniProt Q1PDC7 19-648)
T1 construct: extracellular domain; also called Marburg GP (Ravn) ectodomain
T1 sequence: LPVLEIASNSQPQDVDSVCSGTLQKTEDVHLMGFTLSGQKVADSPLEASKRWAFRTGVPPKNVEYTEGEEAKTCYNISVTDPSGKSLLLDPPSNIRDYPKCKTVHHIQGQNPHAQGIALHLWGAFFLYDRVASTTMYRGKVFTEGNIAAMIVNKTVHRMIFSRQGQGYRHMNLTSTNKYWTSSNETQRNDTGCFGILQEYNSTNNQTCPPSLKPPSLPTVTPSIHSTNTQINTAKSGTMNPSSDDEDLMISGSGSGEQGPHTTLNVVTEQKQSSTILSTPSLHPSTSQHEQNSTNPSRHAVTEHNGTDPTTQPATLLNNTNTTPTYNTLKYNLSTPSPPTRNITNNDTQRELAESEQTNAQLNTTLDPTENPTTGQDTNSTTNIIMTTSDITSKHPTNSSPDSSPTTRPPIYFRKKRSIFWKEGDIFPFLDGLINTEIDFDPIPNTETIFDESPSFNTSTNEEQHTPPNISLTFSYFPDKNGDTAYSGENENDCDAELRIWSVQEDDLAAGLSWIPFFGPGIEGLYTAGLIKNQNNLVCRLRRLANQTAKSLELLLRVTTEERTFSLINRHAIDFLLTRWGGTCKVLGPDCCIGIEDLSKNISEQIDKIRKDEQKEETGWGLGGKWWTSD
test: ELISA, GP coated 200 ng/well, mAb at 2 ug/mL
For each record, write down the corresponding OD405 @ 30 min.
Answers are plain numbers, in OD405.

binder: muCAN30G5 (antibody, V domains shown, also called murine CAN30G5) VH: EVQLVESGGGLVQPKGSLKLSCAASGFAFNSYAMHWVCQAPGKGLEWVARIRIKSGNYATSYAGSVTDRFTVSRDDSQNLFYLQMNNLKTEDTAMYYCVREWEGAMDYWGQGTSVTVSS VL: DIVLTQSPLSLPVSLGDQASISCRSSQSLVHSNGNTYLHWYLQKPGQSPNLLIYKVSNRFSGVPDRFSGSGSGTDFTLKISRVEAEDLGVYFCSQSTHVPWTFGGGTKLEIK
assay value: 0.16

List the reported OD405 @ 30 min of each binder below.
1. huCAN54G2 (antibody, V domains shown, also called humanized CAN54G2) VH: QVQLQQSGTEVKKPGASVKVSCKASGYDFTNFWLGWIRQAPGQGLEWIGDIYPGGDNTYYNEKFKGRVTLTADKSSNTAYMELSSLRSEDTAVYFCFMILYTLDYWGQGTLVTVSS VL: DVVMTQTPLTLPVTLGQPASISCTSSQSLLNSDGETYLNWLLQRPGQSPKRLIHLVSKLDSGVPDRFSGSGSGTDFTLKISRVEAEDVGVYYCWQGTHFPWTFGGGTKVEIK
2. muCAN40G1 (antibody, V domains shown, also called murine CAN40G1) VH: EVQLQQSGPELVKPGASVKISCRTSGYTFTEYTIHWVKQSRGKSLEWIGGINPNHGGTLYNQKFKVKATLTVDKSSSTAYMELRSLTSEDSAVYYCARFTYDYWGQGTTLTVSS VL: DIVLTQSPASLAVSLGQRASISCKASQSVDHDGDSYMNWYQQKPGQPPKLLIYATSNLESGIPARFSGSGSGTDFTLNIHPVEEEDAATYYCQQSYEVPLTFGAGTKLELK
3. huCAN40G1 (antibody, V domains shown, also called humanized CAN40G1) VH: EVQLQQSGPEVKKPGASVKVSCRTSGYTFTEYTIHWVKQAPGKGLEWIGGINPNHGGTLYNQKFKGRVTLTVDKSSSTAYMELSRLRSDDTAVYYCARFTYDYWGQGTLVTVSS VL: DIVLTQSPASLAVSLGERATISCKASQSVDHDGDSYMNWYQQKPGQPPKLLIYATSNLESGIPARFSGSGSGTDFTLTISSLQAEDVATYYCQQSYEVPLTFGAGTKLEIK
4. huCAN30G5 (antibody, V domains shown, also called humanized CAN30G5) VH: EVQLVESGGGLVQPGGSLKLSCAASGFAFNSYAMHWVRQASGKGLEWVARIRIKSGNYATSYAGSVKGRFTVSRDDSKNTFYLQMNSLKTEDTAMYYCVREWEGAMDYWGQGTLVTVSS VL: DIVLTQSPLSLPVTLGQPASISCRSSQSLVHSNGNTYLHWYQQRPGQSPRLLIYKVSNRFSGVPDRFSGSGSGTDFTLKISRVEAEDVGVYYCSQSTHVPWTFGGGTKVEIK

RESULT:
0.89
0.504
2.75
2.74
